protocol text: Metabolic stability in mouse liver microsomes assessed as intrinsic clearance at 1 uM in the presence of NADPH measured for 60 mins by LC-MS/MS analysis
Type: ADME, Microsome
measurement context: read-out: CLH
measurement kind: CLint scaled at 1 µM
// return the numeric value with its unit appended

>  <molecule>
COc1cc2c(cc1OCC(F)(F)F)CCN1CC(CC(C)C)C(O)CC21 (configuration not stated)

>  <CLint scaled at 1 µM>
238 mL/min/kg

$$$$
>  <molecule>
CCCOc1cc2c(cc1OCC)C1CC(O)C(CC(C)C)CN1CC2 (configuration not stated)

>  <CLint scaled at 1 µM>
535 mL/min/kg

$$$$
>  <molecule>
COc1cc2c(cc1OC)C1CC(O)(CO)C(CC(C)C)CN1CC2 (configuration not stated)

>  <CLint scaled at 1 µM>
143 mL/min/kg

$$$$
>  <molecule>
COc1cc2c(cc1OCC1CC1)CCN1CC(CC(C)C)C(O)CC21 (configuration not stated)

>  <CLint scaled at 1 µM>
522 mL/min/kg

$$$$

[Q] Which CLint scaled at 1 µM value is on record for COc1cc2c(cc1OC)[C@H]1C[C@@H](O)[C@H](CC(C)C)CN1CC2 [DIHYDROTETRABENAZINE] ?
[A] 1150 mL/min/kg

[Q] Which CLint scaled at 1 µM value is on record for COc1cc2c(cc1OC)C1CC(=O)C(CC(C)C)CN1CC2 (configuration not stated) ?
[A] 254 mL/min/kg

[Q] Which CLint scaled at 1 µM value is on record for CCOc1cc2c(cc1OC)C1CC(O)C(CC(C)C)CN1CC2 (configuration not stated) ?
[A] 283 mL/min/kg

----------
measured target: Cytochrome P450 2D6 (Homo sapiens, UniProt P10635)
Sequence (P10635 whole entry): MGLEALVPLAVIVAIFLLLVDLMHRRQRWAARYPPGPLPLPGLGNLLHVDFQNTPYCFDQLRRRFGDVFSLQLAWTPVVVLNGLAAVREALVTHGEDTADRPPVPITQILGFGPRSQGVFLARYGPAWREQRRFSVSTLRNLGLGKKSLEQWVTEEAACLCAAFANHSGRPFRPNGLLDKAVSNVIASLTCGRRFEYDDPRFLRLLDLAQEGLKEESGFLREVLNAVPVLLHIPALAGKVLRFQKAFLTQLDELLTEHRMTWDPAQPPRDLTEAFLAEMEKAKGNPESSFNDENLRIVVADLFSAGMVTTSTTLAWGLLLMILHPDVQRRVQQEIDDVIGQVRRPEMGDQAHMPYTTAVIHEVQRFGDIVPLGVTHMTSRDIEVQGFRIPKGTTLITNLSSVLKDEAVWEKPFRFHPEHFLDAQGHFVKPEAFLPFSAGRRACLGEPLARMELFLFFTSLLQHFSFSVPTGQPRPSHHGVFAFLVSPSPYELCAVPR
pIC50: −log10 of the molar value.
measurement kind: pIC50

[Q] Form field - read-out: pIC50; system: Cytochrome P450 2D6 (Homo sapiens, UniProt P10635); submitted item: COc1cc2c(cc1OC)[C@H]1C[C@@H](O)[C@H](CC(C)C)CN1CC2 [DIHYDROTETRABENAZINE]
[A] < 4.00

----------
measured target: Cytochrome P450 2B6 (Homo sapiens)
Sequence (P20813 whole entry): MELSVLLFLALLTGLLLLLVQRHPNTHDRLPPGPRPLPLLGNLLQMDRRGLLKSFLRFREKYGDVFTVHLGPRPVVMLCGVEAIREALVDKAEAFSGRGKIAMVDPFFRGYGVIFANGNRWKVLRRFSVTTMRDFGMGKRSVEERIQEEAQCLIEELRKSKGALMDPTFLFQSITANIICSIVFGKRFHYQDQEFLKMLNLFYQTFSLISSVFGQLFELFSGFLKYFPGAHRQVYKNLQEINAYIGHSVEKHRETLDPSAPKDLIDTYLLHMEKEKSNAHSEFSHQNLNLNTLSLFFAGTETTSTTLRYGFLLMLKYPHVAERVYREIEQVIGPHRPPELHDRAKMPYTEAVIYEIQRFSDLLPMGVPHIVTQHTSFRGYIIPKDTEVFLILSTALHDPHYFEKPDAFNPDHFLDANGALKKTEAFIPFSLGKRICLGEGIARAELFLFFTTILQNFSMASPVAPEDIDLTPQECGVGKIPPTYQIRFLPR
measurement kind: IC50

>  <molecule>
COc1cc2c(cc1OC)[C@H]1C[C@@H](O)[C@H](CC(C)C)CN1CC2 [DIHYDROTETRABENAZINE]

>  <measurement kind>
IC50

>  <observed result>
> 100 µM

$$$$

Now for the molecule whose IC50 we want.
[Q] Which IC50 value is on record for COc1cc2c(cc1OCC(F)(F)F)CCN1CC(CC(C)C)C(O)CC21 (configuration not stated) ?
[A] > 100 µM

----------
protocol text: Metabolic stability in monkey liver microsomes assessed as half life at 1 uM in the presence of NADPH measured for 60 mins by LC-MS/MS analysis
Assay type: ADME, Macaca mulatta, Microsome
measurement context: rhesus monkey
measurement kind: half-life at 1 µM (min)
Write down the numeric answer in min and omit the unit.

>  <compound>
CCCOc1cc2c(cc1OCC)C1CC(O)C(CC(C)C)CN1CC2 (centres undefined)

>  <measurement kind>
half-life at 1 µM

>  <observed result>
15.6

$$$$
>  <compound>
COc1cc2c(cc1OCC1CC1)CCN1CC(CC(C)C)C(O)CC21 (centres undefined)

>  <measurement kind>
half-life at 1 µM

>  <observed result>
25.9

$$$$
>  <compound>
COc1cc2c(cc1OC)C1CC(=O)C(CC(C)C)CN1CC2 (centres undefined) [TETRABENAZINE]

>  <measurement kind>
half-life at 1 µM

>  <observed result>
12.6

$$$$

Now for the compound whose half-life at 1 µM we want.
[Q] Which half-life at 1 µM value is on record for COc1cc2c(cc1OC)[C@H]1C[C@@H](O)[C@H](CC(C)C)CN1CC2 [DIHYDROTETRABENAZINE] ?
[A] 34.8

----------
measured target: UniProt P33261
Sequence (P33261 whole entry): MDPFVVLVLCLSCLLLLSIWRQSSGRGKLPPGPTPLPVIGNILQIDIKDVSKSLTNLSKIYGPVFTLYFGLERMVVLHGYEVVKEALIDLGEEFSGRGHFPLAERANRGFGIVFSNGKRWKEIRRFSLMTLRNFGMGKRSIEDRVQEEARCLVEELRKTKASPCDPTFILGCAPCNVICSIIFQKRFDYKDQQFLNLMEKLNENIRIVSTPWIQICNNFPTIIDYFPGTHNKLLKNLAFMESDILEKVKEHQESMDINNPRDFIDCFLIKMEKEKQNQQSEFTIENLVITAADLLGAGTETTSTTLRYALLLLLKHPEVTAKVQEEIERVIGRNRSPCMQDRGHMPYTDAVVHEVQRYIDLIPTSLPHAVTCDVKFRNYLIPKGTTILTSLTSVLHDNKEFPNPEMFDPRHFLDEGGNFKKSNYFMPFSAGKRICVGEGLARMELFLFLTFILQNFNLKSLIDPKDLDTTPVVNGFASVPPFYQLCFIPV
pIC50: −log10 of the molar value.
measurement kind: pIC50

>  <molecule>
COc1cc2c(cc1OC)[C@H]1C[C@@H](O)[C@H](CC(C)C)CN1CC2 [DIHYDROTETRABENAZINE]

>  <pIC50>
< 4.00

$$$$

Now for the molecule whose pIC50 we want.
[Q] Which pIC50 value is on record for COc1cc2c(cc1OCC(F)(F)F)CCN1CC(CC(C)C)C(O)CC21 (configuration not stated) ?
[A] < 4.00

----------
protocol text: Metabolic stability in mouse liver microsomes assessed as parent compound remaining at 1 uM in the presence of NADPH measured after 60 mins by LC-MS/MS analysis
Format: ADME, Microsome
measurement context: liver microsomes, read-out: Stability
Entries annotated with measured remaining at 1 h, 1 µM
Write down the numeric answer in % and omit the unit.

Example compounds with recorded remaining at 1 h, 1 µM:
>  <compound>
COc1cc2c(cc1OC)C1CC(=O)C(CC(C)C)CN1CC2 (stereo not given)

>  <remaining at 1 h, 1 µM [%]>
13.4

$$$$
>  <compound>
COc1cc2c(cc1OCC(F)(F)F)CCN1CC(CC(C)C)C(O)CC21 (stereo not given)

>  <remaining at 1 h, 1 µM [%]>
14.2

$$$$

[Q] Which remaining at 1 h, 1 µM value is on record for COc1cc2c(cc1OC)[C@H]1C[C@@H](O)[C@H](CC(C)C)CN1CC2 [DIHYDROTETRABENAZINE] ?
[A] 4.8

[Q] Which remaining at 1 h, 1 µM value is on record for CCCOc1cc2c(cc1OCC)C1CC(O)C(CC(C)C)CN1CC2 (stereo not given) ?
[A] 1.3

[Q] Which remaining at 1 h, 1 µM value is on record for CCOc1cc2c(cc1OC)C1CC(O)C(CC(C)C)CN1CC2 (stereo not given) ?
[A] 9.4

----------
Entries annotated with measured half-life
protocol text: Half life in Sprague-Dawley rat at 10 umol/kg, ig administered as single dose measured for 12 hrs by LC-MS/MS analysis
Assay type: ADME
measurement context: in vivo, po, dose 10 µmol/kg
Write down the numeric answer in h and omit the unit.

[Q] Which half-life value is on record for COc1cc2c(cc1OCC(F)(F)F)CCN1CC(CC(C)C)C(O)CC21 (configuration not stated) ?
[A] 2.29

[Q] Which half-life value is on record for COc1cc2c(cc1OC)[C@H]1C[C@@H](O)[C@H](CC(C)C)CN1CC2 [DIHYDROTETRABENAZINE] ?
[A] 1.61

----------
protocol text: Cmax in Sprague-Dawley rat at 10 umol/kg, ig administered as single dose measured for 12 hrs by LC-MS/MS analysis
Format: ADME
Set-up: route […], time 12 hrs, dose 10 µmol/kg
measurement context: in vivo, po
measurement kind: Cmax (nM)
Write down the numeric answer in nM and omit the unit.

>  <compound>
COc1cc2c(cc1OCC(F)(F)F)CCN1CC(CC(C)C)C(O)CC21 (configuration not stated)

>  <Cmax, nM>
1400

$$$$

[Q] Which Cmax value is on record for COc1cc2c(cc1OC)[C@H]1C[C@@H](O)[C@H](CC(C)C)CN1CC2 [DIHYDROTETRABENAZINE] ?
[A] 1210

----------
protocol text: Metabolic stability in human liver microsomes assessed as parent compound remaining at 1 uM in the presence of NADPH measured after 60 mins by LC-MS/MS analysis
Format: ADME, Microsome
measurement context: read-out: Stability
Entries annotated with measured remaining at 1 h, 1 µM
Write down the numeric answer in % and omit the unit.

Example compounds with recorded remaining at 1 h, 1 µM:
>  <compound>
COc1cc2c(cc1OC)C1CC(=O)C(CC(C)C)CN1CC2 (stereo unspecified) [TETRABENAZINE]

>  <measurement unit>
%

>  <remaining at 1 h, 1 µM>
30.8

$$$$
>  <compound>
COc1cc2c(cc1OC)[C@H]1C[C@@H](O)[C@H](CC(C)C)CN1CC2 [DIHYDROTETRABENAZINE]

>  <measurement unit>
%

>  <remaining at 1 h, 1 µM>
75.6

$$$$
>  <compound>
COc1cc2c(cc1OCC(F)(F)F)CCN1CC(CC(C)C)C(O)CC21 (stereo unspecified)

>  <measurement unit>
%

>  <remaining at 1 h, 1 µM>
77.4

$$$$
>  <compound>
COc1cc2c(cc1OCC1CC1)CCN1CC(CC(C)C)C(O)CC21 (stereo unspecified)

>  <measurement unit>
%

>  <remaining at 1 h, 1 µM>
74.7

$$$$
>  <compound>
CCOc1cc2c(cc1OC)C1CC(O)C(CC(C)C)CN1CC2 (stereo unspecified)

>  <measurement unit>
%

>  <remaining at 1 h, 1 µM>
66.8

$$$$

Now for the compound whose remaining at 1 h, 1 µM we want.
[Q] Which remaining at 1 h, 1 µM value is on record for CCCOc1cc2c(cc1OCC)C1CC(O)C(CC(C)C)CN1CC2 (stereo unspecified) ?
[A] 47.3

Reference source: ChEMBL document CHEMBL4828724
